- target_desc: T1, human FcRn/b2M (human, UniProt P61769 21-119, biotinylated)
- T1 construct: bought recombinant biotinylated protein (ACRO FCM-H82W4 or Immunitrack ITF01); also called hFcRn; hFcRn/hb2M
- experiment_summary: SPR off-rate; pH 7.4 vs pH 6.0;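 also: surface plasmon resonance with diluted periplasmic extracts flowed over ligand surfaces, 120 s association and 600–3600 s dissociation at 25 °C, running buffer containing 150 mM NaCl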
test_readout: kd ratio pH 7.4/6.0

T0263018B11 S30D (VHH, name in Kabat numbering, FLAG3-His6 tagged) VHH: EVQLVESGGGVVQPGGSLRLSCAASGFTFDSYAMYWVRQAPGKGLEWVSAISSGGGSTDYADSVKGRFTISRDNSKNTLYLQMNSLRPEDTALYYCAADTLYTSLTWYSYWGQGTLVTVSS : 41
T0263018B11 F29G (VHH, name in Kabat numbering, FLAG3-His6 tagged) VHH: EVQLVESGGGVVQPGGSLRLSCAASGFTGSSYAMYWVRQAPGKGLEWVSAISSGGGSTDYADSVKGRFTISRDNSKNTLYLQMNSLRPEDTALYYCAADTLYTSLTWYSYWGQGTLVTVSS : 45
T0263018B11 G26Y (VHH, name in Kabat numbering, FLAG3-His6 tagged) VHH: EVQLVESGGGVVQPGGSLRLSCAASYFTFSSYAMYWVRQAPGKGLEWVSAISSGGGSTDYADSVKGRFTISRDNSKNTLYLQMNSLRPEDTALYYCAADTLYTSLTWYSYWGQGTLVTVSS : 42
T0263018B11 S52aM (VHH, name in Kabat numbering, FLAG3-His6 tagged) VHH: EVQLVESGGGVVQPGGSLRLSCAASGFTFSSYAMYWVRQAPGKGLEWVSAISMGGGSTDYADSVKGRFTISRDNSKNTLYLQMNSLRPEDTALYYCAADTLYTSLTWYSYWGQGTLVTVSS : 36

Values were extracted from patent US20240132624A1.
